Assay explanation: Energy level: ionization potential of spin coat film by surface analyzer AC-1, electron affinity by subtracting absorption-edge energy
Format: physicochemical
Condition label: ionization potential minus absorption-edge energy
Outcome measure: electron affinity (eV)
Answers are plain numbers, in eV.

| Compound | Unit abbreviation | electron affinity |
| --- | --- | --- |
| Cc1ccc2c(-c3ccccc3-c3ccc(-c4nc(-c5ccc(C(C)(C)C)cc5)nc(-c5ccc(C(C)(C)C)cc5)n4)cc3)c3ccccc3c(-c3ccccc3-c3ccc(-c4nc(-c5ccc(C(C)(C)C)cc5)nc(-c5ccc(C(C)(C)C)cc5)n4)cc3)c2c1 (single isomer, unassigned) [isomer component 1 of the compound 2] | eV | 2.9 |
| Cc1ccc(-c2nc(-c3ccc(C)cc3)nc(-c3ccc(-c4ccc5c(c4)C4(c6ccccc6-5)c5ccccc5-c5ccc(-c6ccc(-c7nc(-c8ccc(C)cc8)nc(-c8ccc(C)cc8)n7)cc6)cc54)cc3)n2)cc1 | eV | 3.0 |
| CC(C)(C)c1ccc2c(c1)c1cc(C(C)(C)C)ccc1n2-c1ccc(-c2cc(-c3ccc(-n4c5ccc(C(C)(C)C)cc5c5cc(C(C)(C)C)ccc54)cc3)cc(-c3ccc(-n4c5ccc(C(C)(C)C)cc5c5cc(C(C)(C)C)ccc54)cc3)c2)cc1 | eV | 2.8 |

From here, focus on the item given below.
// recorded electron affinity for `CC(C)(C)c1ccc(-c2nc(-c3ccc(-c4ccc5c(c4)C4(c6ccccc6-5)c5ccccc5-c5ccc(-c6ccc(-c7nc(-c8ccc(C(C)(C)C)cc8)nc(-c8ccc(C(C)(C)C)cc8)n7)cc6)cc54)cc3)nc(-c3ccc(C(C)(C)C)cc3)n2)cc1` : 3.0

---

Assay explanation: Fluorescent spectrum of spin coat film (fluorophotometer RF-5300PC)
Type: physicochemical
Condition label: single-compound spin coat film on ITO transparent electroconductive glass, excitation 330-340 nm
So I've got a bunch of compounds here, and I need their fluorescent peak wavelength values.
One number for each entry, in nm.

| Structure as smiles | Measured |
| --- | --- |
| Cc1ccc2c(-c3ccccc3-c3ccc(-c4nc(-c5ccc(C(C)(C)C)cc5)nc(-c5ccc(C(C)(C)C)cc5)n4)cc3)c3ccccc3c(-c3ccccc3-c3ccc(-c4nc(-c5ccc(C(C)(C)C)cc5)nc(-c5ccc(C(C)(C)C)cc5)n4)cc3)c2c1 | 454 |
| CC(C)(C)c1ccc(-c2nc(-c3ccc(-c4ccccc4-c4c5ccccc5c(-c5ccccc5-c5ccc(-c6nc(-c7ccc(C(C)(C)C)cc7)nc(-c7ccc(C(C)(C)C)cc7)n6)cc5)c5ccccc45)cc3)nc(-c3ccc(C(C)(C)C)cc3)n2)cc1 | 448 |
| CC(C)(C)c1ccc(-c2nc(-c3ccc(-c4ccccc4-c4c5ccccc5c(-c5ccccc5-c5ccc(-c6nc(-c7ccc(C(C)(C)C)cc7)nc(-c7ccc(C(C)(C)C)cc7)n6)cc5)c5cc(C(C)(C)C)ccc45)cc3)nc(-c3ccc(C(C)(C)C)cc3)n2)cc1 | 453 |
| CC(C)(C)c1ccc(-c2nc(-c3ccc(-c4ccc5c(c4)C4(c6ccccc6-5)c5ccccc5-c5ccc(-c6ccc(-c7nc(-c8ccc(C(C)(C)C)cc8)nc(-c8ccc(C(C)(C)C)cc8)n7)cc6)cc54)cc3)nc(-c3ccc(C(C)(C)C)cc3)n2)cc1 | 422 |

Continue with the compound presented below.
Looking up `Cc1ccc(-c2nc(-c3ccc(C)cc3)nc(-c3ccc(-c4ccc5c(c4)C4(c6ccccc6-5)c5ccccc5-c5ccc(-c6ccc(-c7nc(-c8ccc(C)cc8)nc(-c8ccc(C)cc8)n7)cc6)cc54)cc3)n2)cc1` , I found its fluorescent peak wavelength recorded as 424

This collection of values is drawn from patent US8475940B2.
